# System: Escherichia coli
# ASSAY_PROTOCOL: Antibacterial activity against penicillin-susceptible Escherichia coli ATCC25922 assessed as bacterial growth inhibition incubated for 20 hrs by CLSI based broth microdilution method
# Assay type: functional
# MIC per entry
MEASURED_PARAMETER: MIC (µg/mL)

>>> recorded_measurement("C[n+]1cc(-c2ccccc2)cc(/C=C/c2cccc(Br)c2)c1-c1ccccc1.[I-]")
64
>>> recorded_measurement("CC(C)c1ccc(/C=C/c2cc(-c3ccc(C(C)(C)C)cc3)[n+](C)cc2-c2ccccc2)cc1.[I-]")
2
>>> recorded_measurement("CC(C)c1ccc(/C=C/c2cc(-c3ccccc3)c[n+](C)c2-c2ccccc2)cc1.[I-]")
16
>>> recorded_measurement("C[n+]1cc(-c2ccccc2)c(/C=C/c2ccc(N3CCCCC3)cc2)cc1-c1ccc2ccccc2c1.[I-]")
64
>>> recorded_measurement("C[n+]1cc(-c2ccccc2)c(/C=C/c2ccc(F)cc2)cc1-c1ccc(C(C)(C)C)cc1.[I-]")
8
>>> recorded_measurement("CCCOc1ccc(/C=C/c2cc(-c3ccccc3)c[n+](C)c2-c2ccccc2)cc1.[I-]")
32
>>> recorded_measurement("CCCCCCCOc1ccc(/C=C/c2cc(-c3ccccc3)c[n+](C)c2-c2ccccc2)cc1.[I-]")
8
>>> recorded_measurement("C[n+]1cc(-c2ccccc2)c(/C=C/c2ccc(O)cc2)cc1-c1ccc(C(C)(C)C)cc1.[I-]")
64
>>> recorded_measurement("CN(C)c1ccc(/C=C/c2cc(-c3ccc(C(C)(C)C)cc3)[n+](C)cc2-c2ccccc2)cc1.[I-]")
4
